The origin of these recorded values is the NTF2 design screens of Basanta et al. (2020).

# method: protease stability score; higher = more stable; yeast display proteolysis, trypsin and chymotrypsin;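 also: log10 excess protease needed over predicted unfolded state with 0 meaning unfolded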
// 0.0 strictly below 0.3 in protease stability score; 1.0 otherwise

Given the entry DEEASKKIKTLVQILNTGDPDKAVKLFDPNARFQVGDKEISGREQFKEVLKKLKHKMRNDIKVKHVEVNNGHANAHAVMTVQVNGQPDHFTFIMRIQWHNGVIEHREVQMDEDELRRYNS , answer whether its protease stability score meets or surpasses 0.3. 1.0

Given the entry EKEAKTLAHHVMEALEKNDPDQMDEQLDENARVQVGDREVHGREEVNKQIKRLKKHAHFEIESVTLDVQGDKVDAQYTMRADVNGKPWRDHVTVEIHVRNGRIKELRFRMDPQRLRDFKK , answer whether its protease stability score meets or surpasses 0.3. 1.0

Given the entry DEHNVHKVKSMIRAMKTGDEETAQRLADPNVHVKIGDHTLQGRSQLKEYVKKLKTQAKFDFREVDAQDHNGHVKVNVDVVARINGKPVRYEVIIHVTFHNGKIKSAEYQVPQDYLDTLES , answer whether its protease stability score meets or surpasses 0.3. 1.0

Given the entry DEEQHSVADQFNRDLRQGDPDTIRKLLDKDADLRVGDKDLHGRENLIDHMRKMHKKMQVNVDVDSVEDHNGKVIIQATVVEHHNGKPKTYQVDARLHADNGKIKNADFQETS , answer whether its protease stability score meets or surpasses 0.3. 0.0

With those in mind, consider the next sequence.
Given the entry EDRAQENLHELLKAIQQGDEDSVESLLDKDVKIQVGDKYIHGRENYAEHVRKTRQEIRVNYRIESYSVHNGRAKMTFRANRDDNGKPETWKAQATMEVDNGRITFIHRNKRG , answer whether its protease stability score meets or surpasses 0.3. 0.0
